tested on: RARb homodimer (NR concentration 270 nM); experiment: PBM binding z-score (relative to random genomic background probes); higher = stronger binding; sequences stand for … in GC…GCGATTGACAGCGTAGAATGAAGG
Label 1 when PBM binding z-score is at or above 2; anything below gets -1.

These recorded examples may help you get a feel for the data.
- CAAACTAGGTCACGAACGGTCAAAGTCGAATGAC: 1
- CCGAGTAGGTTATGGGGCATACAGGCAACGGTGA: -1
- CGAACGAGGGCATGAGTTGAGAGCAAATGCCGAT: -1

Record CCTAGCAGGCCATTCTGGGTCACTCAAGGCTTGA ; criterion: PBM binding z-score no lower than 2. Met?
1

Quick check: does GGAACGAGGGCTTTCGAGTTGATAGCATGGCGAT have PBM binding z-score greater than or equal to 2?
-1

Is PBM binding z-score for CGTCCAAGGTGAGAGAGGTCAGTGAATGCCGAGT at or above 2?
1

---

test system: LXRa homodimer (NR concentration 270 nM); assay: PBM binding z-score (relative to random genomic background probes); higher = stronger binding; sequences stand for … in GC…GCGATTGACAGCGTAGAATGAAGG
Think of -0.4 as a floor: if PBM binding z-score stands on it or above, it is True; beneath it, False.

- AGAACGAGGGGAATGAGTTGATAGCACGGGTGGC: True
- TCTGCTAGGTCAGCGATGGTCAGCTAATCTGCTA: False
- ATCGAAAGGTCGTGAGGTGCGTATACAGAAAGGC: True

Kindly determine if PBM binding z-score recorded for GGAACGAGGGCATTCGAGTTGATCGCATGGCGAT is above or exactly -0.4.
False

Reported PBM binding z-score reaches at least -0.4 for GCGACTGGGGCAAATCAGGTTACCATAAGGTTGG ?
True

Given ACTAGTAGTTGACTTAGGGCAACCGATACGACGC , state whether its PBM binding z-score is at least -0.4.
False

---

tested on: PPARg homodimer (NR concentration 180 nM); experiment: PBM binding z-score (relative to random genomic background probes); higher = stronger binding; sequences stand for … in GC…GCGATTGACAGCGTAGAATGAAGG
Label true when PBM binding z-score is at or above 0.3; anything below gets false.

Some entries whose results are on file:
• GCTTGTAGAGCAAGGTTAAGAAAGACTAAGCTAA = false
• AGAATGAGGTTATTTAGATCAGGGAATTGCGGTC = true
• CAAACTAGGTCAAGGTCAAAGTGGGTTTGTGCCA = true

Let us examine a further case.
Is it the case that GCTTGTAGATCAAGGTGAAGAAAGACTAAGCTAA has PBM binding z-score reaching or exceeding 0.3?
false

---

tested on: LXRa homodimer (NR concentration 270 nM); test: PBM binding z-score (relative to random genomic background probes); higher = stronger binding; sequences stand for … in GC…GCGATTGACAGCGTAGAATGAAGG
observed-property: PBM binding z-score
// keep it numeric: no unit symbol after the value

- CCGACTGGTGCAGAAAGGTTACCATACCATCCGG: -0.181
- CCTATTAGTTGAGCATAAGGGCAACCGAAGCTCG: 0.193
- ATCGAAAGGTCGACGAGGTGAGTACACACCGTTT: 0.0409

Record CTAACTAGGTCAAGGACAGTGAATCTCCGCACGC : what is its PBM binding z-score with LXRa homodimer (NR concentration 270 nM)?
0.51

Give PBM binding z-score (LXRa homodimer (NR concentration 270 nM)) of the following sequence: TAGCCTAGGTCAGATCGGGCCAGGATACGCTATA
-0.706

Requested read-out PBM binding z-score, target or system LXRa homodimer (NR concentration 270 nM), entry AGAACGAGGGCACGCTGAGTTGCTAGCAGAGTAG
-0.756

Entry ACTAGCAGGCCAAGTTTGGGTAACTCAAACAAAG , system LXRa homodimer (NR concentration 270 nM): what PBM binding z-score was measured?
-0.575

Item: CCAGTCAGGTGAAAGGTAACTCAGTCTGGTACGC Test system: LXRa homodimer (NR concentration 270 nM) Read-out: PBM binding z-score Value: ?
-0.287

// map TCTGCTAGGTCAGTTGGTCACCTAACGAGCTGCC to recorded PBM binding z-score (system: LXRa homodimer (NR concentration 270 nM))
-0.345

Quick check: PBM binding z-score on LXRa homodimer (NR concentration 270 nM), item ACTCGGAGGAGAAAGGTCAGAGCTACGCCAGTGA ?
0.746

Record ACTAGTTGGTCAGCTGAGGTCATACACAATTCGG : what is its PBM binding z-score with LXRa homodimer (NR concentration 270 nM)?
3.44

Which PBM binding z-score is reported with LXRa homodimer (NR concentration 270 nM) for this entry: CAAACTAGGTCAAATGTCAAAGTCGAGCCAACCA ?
1.45

---

test system: PPARg:RXRa DBDmut IVT, anti-RXR (DBD mutation: RXRa K156A/R161A, NR concentration 270 nM, RXRa partner concentration 90 nM); experiment: PBM binding z-score (relative to random genomic background probes); higher = stronger binding; sequences stand for … in GC…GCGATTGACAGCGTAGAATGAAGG
observed-property: PBM binding z-score
Could you respond with only the numeric value?

Study these solved cases before continuing.
• ATATGTAGGTTAGCTGTGGTCATTCAGACTAGGC = 6.97
• GCTAGTTGGTCAGTAAAAGGTCACTCACCGGTCG = 1.28
• GCTTACGGGTCAAAGGTAATAGCATGAATAGAAT = 4.96
• GATACAGGGTCAGCTAGAAGCCAGAGTATGGAAA = 1.32

Which PBM binding z-score is listed for CCGACTGGGGCAGCAAGGTTACCATACCATCCGG ?
1.54

Suppose we examine the sequence TCTCTGAGGACACGAAAGGTCAGAGCTCGACATC ; what PBM binding z-score value has been reported?
1.67

I'd like to know its PBM binding z-score. The sequence in question is ATATGTAGGCTATCGGGTCATTCAGTTTGCGCAT
5.77

What measured PBM binding z-score goes with CTTAGCAGGCCAGGGTCACTCAAGCATTTCGCTT ?
1.45

I have this sequence here, CTCGAAAGGTCGGTTGGGGTGAGTATACGGATAA , and I need its recorded PBM binding z-score.
0.404

Need PBM binding z-score, item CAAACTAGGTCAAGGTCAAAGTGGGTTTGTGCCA
8.63

Form field: reported PBM binding z-score of CCGACTGGGGCATTAGGTTACCATAAGCCAGCCC
4.18

Which PBM binding z-score value is on record for ACAGACAGGTGATGAAGGTAGCTCAGGCTATCAT ?
0.00476

Recorded PBM binding z-score for CCTTACGGGTTACTGACAGGTTATAGCATTTGGA , please?
1.04

Look at this sequence and give its reported PBM binding z-score. ACTAGCAGGCCAAGGGTCACTCAGGATTAGTCCG
1.05

# lookup: PBM binding z-score of CCTCGGAGGACAGAAGTTCAGAGCTGTCCGCTTT
-0.783

Form field: reported PBM binding z-score of CCGACTGGGGCATAAGGTTACCATGAGCCAGCCC
2.64

Look up PBM binding z-score for this sequence: TGAATGAGGTTATAAGATCAGGTAACGTTGCAAA
1.19

# lookup: PBM binding z-score of TCTCGGAGGACACGAAGCTCAGAGCTTTCCAGAG
1.41

Quick check: PBM binding z-score of CGTCAAAGTTCAACTAAGGTAGCGTAAAGCACGC ?
0.387

Fill in: PBM binding z-score of CTACCCAGGTGAACAAGGTCGTTGATTACTATTC is ___
1.84

---

test system: LXRb:RXRa (NR concentration 270 nM, RXRa partner concentration 90 nM); assay: PBM binding z-score (relative to random genomic background probes); higher = stronger binding; sequences stand for … in GC…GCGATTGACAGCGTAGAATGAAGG
observed-property: PBM binding z-score

- GTACCAAGGTGAATAGGTTGTTGATGAGTAGGCG: 0.384

# PBM binding z-score lookup, item TCTAGTTGGTCACGCAGGTCACACACGACGGGTA
2.09

Tell me the measured PBM binding z-score of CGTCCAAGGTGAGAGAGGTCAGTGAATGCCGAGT , please.
2.05

Endpoint output: PBM binding z-score of ATCTCTAGGTAACAAGCTCAGTGAAAGAGAGGAC . Value?
-0.105

Fill in: PBM binding z-score of GCTTGTAGATCAACGTTAAGAAAGACTAAGCTAA is ___
-0.448

Query: PBM binding z-score; subject: CAAACTAGGTCAAGAGGCCAAAGTCCGCTTCCCG
1.81

Which PBM binding z-score is listed for TCTTGTAGATGAACAGGAGGTTAAGAAAGATCGA ?
0.712

What value of PBM binding z-score has been reported for the following sequence? TAGCCGAGGTCATGCGGGCCAGTATAGTGTCGGC
4.64

All figures here come from the supplement of paper PMC6555819.
